target: UniProt P30613; experiment: PKR (wild type) enzyme AC50 assay, LDH/NADH-coupled, absorbance at 340 nm; assay type: biochemical; settings: Table 2; enzyme assay; read-out: PKR WT AC50
Sequence (P30613 whole entry): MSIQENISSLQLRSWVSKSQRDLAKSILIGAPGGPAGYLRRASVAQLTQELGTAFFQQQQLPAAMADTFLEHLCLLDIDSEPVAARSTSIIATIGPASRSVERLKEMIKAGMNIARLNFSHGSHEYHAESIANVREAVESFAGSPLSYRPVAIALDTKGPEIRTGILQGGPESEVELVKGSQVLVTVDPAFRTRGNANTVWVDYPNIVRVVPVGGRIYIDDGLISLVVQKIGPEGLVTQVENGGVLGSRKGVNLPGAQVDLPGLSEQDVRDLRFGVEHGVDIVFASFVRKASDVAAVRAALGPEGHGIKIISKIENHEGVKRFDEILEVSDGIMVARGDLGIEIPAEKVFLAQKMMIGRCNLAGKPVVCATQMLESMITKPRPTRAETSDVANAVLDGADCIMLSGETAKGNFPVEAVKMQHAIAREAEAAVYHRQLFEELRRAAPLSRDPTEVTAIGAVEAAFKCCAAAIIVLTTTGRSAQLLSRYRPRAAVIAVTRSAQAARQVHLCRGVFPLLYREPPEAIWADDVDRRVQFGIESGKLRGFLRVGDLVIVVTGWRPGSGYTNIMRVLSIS
readout kind: AC50

Answered examples (8):
Cn1c2nc(C#N)sc2c2cnn(Cc3cccc(N)n3)c(=O)c21    < 300 nM
COc1cccc(Cn2ncc3c4sc(Cc5ccccc5)nc4n(C)c3c2=O)c1    < 300 nM
Cn1c2nc(Cc3ccccn3)sc2c2cnn(Cc3cccc4[nH]ncc34)c(=O)c21    < 300 nM
Cc1nc2c(s1)c1cnn(CO)c(=O)c1n2C    > 800 nM
Cn1c2nc(S(N)(=O)=O)sc2c2cnn(Cc3cccc4[nH]ncc34)c(=O)c21    < 300 nM
Cc1nc2c(s1)c1cnn(Cc3ccc4[nH]cnc4c3)c(=O)c1n2C    > 800 nM
C=Cc1nc2c(s1)c1cnn(Cc3cccc4[nH]ncc34)c(=O)c1n2C    < 300 nM
CC(O)c1cccc(Cn2ncc3c4sc([S+](C)[O-])nc4n(C)c3c2=O)c1 (centres unmarked)    < 300 nM

Can you share its AC50? I mean this compound: `Cn1c2nc(Cc3cccc(C#N)c3)sc2c2cnn(Cc3cccc4[nH]ncc34)c(=O)c21`
< 300 nM

Same for Cn1c2nc([S+](C)[O-])sc2c2cnn(Cc3cccc4c3CCN4)c(=O)c21 (centres unmarked)
< 300 nM

Similarly, `CNCc1nc2c(s1)c1cnn(Cc3cccc4[nH]ncc34)c(=O)c1n2C` ?
> 800 nM

What do you have for `Cn1c2nc(Cc3cc[nH]n3)sc2c2cnn(Cc3ccc4ccccc4n3)c(=O)c21` ?
< 300 nM

Please give the result for `COc1ccc(Cc2nc3c(s2)c2cnn(Cc4cccc5[nH]ncc45)c(=O)c2n3C)cn1` too.
< 300 nM

What about Cn1c2nc(C(C)(O)c3cc[nH]n3)sc2c2cnn(Cc3cccc4[nH]ncc34)c(=O)c21 (centres unmarked) ?
< 300 nM

Cool, now `Cc1nc2c(s1)c1cnn(Cc3cccc4c3cnn4C)c(=O)c1n2C`
> 800 nM

Follow-up item: `Cc1cccc(Cn2ncc3c4sc(C)nc4n(C)c3c2=O)n1`
< 300 nM

What about this compound? `COc1cccc(Cn2ncc3c4sc(Cc5ccc(C)cc5)nc4n(C)c3c2=O)c1`
< 300 nM

And for `Cc1nc2c(s1)c1cnn(Cc3cccc(O)c3)c(=O)c1n2C` ?
< 300 nM

# repeat for `Cn1c2nc(Cc3cccc4[nH]ncc34)sc2c2cnn(Cc3cccc4[nH]ncc34)c(=O)c21`
< 300 nM

Here is the next compound: `COc1cccc(Cn2ncc3c4sc(C(F)(F)c5ccccc5)nc4n(C)c3c2=O)c1`
< 300 nM

Follow-up item: `CNc1ccc(Cn2ncc3c4sc(C)nc4n(C)c3c2=O)cc1`
> 800 nM

Lookup Cn1c2nc([S+](C)[O-])sc2c2cnn(Cc3csc(N)n3)c(=O)c21 (centres unmarked)
< 300 nM

And then `COC(=O)C(C(=O)OC)c1nc2c(s1)c1cnn(Cc3cccc4[nH]ncc34)c(=O)c1n2C` , what is it?
> 800 nM
